Tested on: Mycobacterium tuberculosis
run description: Minimum inhibitory concentration against Mycobacterium tuberculosis H37Rv ATCC 27294
Assay type: functional

>  <structure>
O=C(CN(/N=C/c1ccc(Cl)cc1Cl)C(=O)c1ccncc1)N1CCN(c2cccc(C(F)(F)F)c2)CC1

>  <MIC>
> 16 µg/mL

$$$$
>  <structure>
O=C(CN(/N=C/c1ccc(Cl)cc1Cl)C(=O)c1ccncc1)N1CCN(c2cccc(Cl)c2)CC1

>  <MIC>
> 16 µg/mL

$$$$
>  <structure>
CO[C@H]1/C=C/O[C@@]2(C)Oc3c(C)c(O)c4c(O)c(c(/C=N/N5CCN(C)CC5)c(O)c4c3C2=O)NC(=O)/C(C)=C\C=C\[C@H](C)[C@H](O)[C@@H](C)[C@@H](O)[C@@H](C)[C@H](OC(C)=O)[C@@H]1C

>  <MIC>
0.125 µg/mL

$$$$
>  <structure>
O=C(CN(/N=C/c1ccc(Cl)cc1)C(=O)c1ccncc1)N1CCN(c2ccc([N+](=O)[O-])cc2)CC1

>  <MIC>
> 16 µg/mL

$$$$
>  <structure>
O=C(CN(/N=C/c1ccccc1Cl)C(=O)c1ccncc1)N1CCN(c2cccc(Cl)c2Cl)CC1

>  <MIC>
> 16 µg/mL

$$$$
>  <structure>
O=C(CN(/N=C/c1ccc(Cl)cc1Cl)C(=O)c1ccncc1)N1CCN(c2ccc(F)cc2)CC1

>  <MIC>
> 16 µg/mL

$$$$
>  <structure>
Cc1cccc(N2CCN(C(=O)CN(/N=C/c3ccc(Cl)cc3Cl)C(=O)c3ccncc3)CC2)c1

>  <MIC>
> 16 µg/mL

$$$$
>  <structure>
O=C(CN(/N=C/c1ccccc1Cl)C(=O)c1ccncc1)N1CCN(c2cccc(Cl)c2)CC1

>  <MIC>
> 16 µg/mL

$$$$
>  <structure>
COc1ccccc1N1CCN(C(=O)CN(/N=C/c2ccc(Cl)cc2)C(=O)c2ccncc2)CC1

>  <MIC>
> 16 µg/mL

$$$$
>  <structure>
Cc1cccc(N2CCN(C(=O)CN(/N=C/c3ccccc3Cl)C(=O)c3ccncc3)CC2)c1

>  <MIC>
> 16 µg/mL

$$$$
>  <structure>
O=C(CN(/N=C/c1ccccc1Cl)C(=O)c1ccncc1)N1CCN(c2ccc([N+](=O)[O-])cc2)CC1

>  <MIC>
> 16 µg/mL

$$$$
>  <structure>
O=C(CN(/N=C/c1ccccc1Cl)C(=O)c1ccncc1)N1CCN(c2ccc(Cl)cc2)CC1

>  <MIC>
> 16 µg/mL

$$$$
>  <structure>
O=C(CN(/N=C/c1cccc(Cl)c1)C(=O)c1ccncc1)N1CCN(Cc2ccc3c(c2)OCO3)CC1

>  <MIC>
4 µg/mL

$$$$
>  <structure>
NNC(=O)c1ccncc1

>  <MIC>
0.25 µg/mL

$$$$
>  <structure>
O=C(CN(/N=C/c1ccccc1Cl)C(=O)c1ccncc1)N1CCN(c2ccc(F)cc2)CC1

>  <MIC>
> 16 µg/mL

$$$$
>  <structure>
O=C(CN(/N=C/c1cccc(Cl)c1)C(=O)c1ccncc1)N1CCN(c2ccccc2)CC1

>  <MIC>
> 16 µg/mL

$$$$
>  <structure>
O=C(CN(/N=C/c1cccc(Cl)c1)C(=O)c1ccncc1)N1CCN(c2cccc(Cl)c2)CC1

>  <MIC>
> 16 µg/mL

$$$$
>  <structure>
O=C(CN(/N=C/c1ccccc1Cl)C(=O)c1ccncc1)N1CCN(c2cccc(C(F)(F)F)c2)CC1

>  <MIC>
> 16 µg/mL

$$$$
>  <structure>
O=C(CN(/N=C/c1ccc(Cl)cc1)C(=O)c1ccncc1)N1CCN(Cc2ccc3c(c2)OCO3)CC1

>  <MIC>
2 µg/mL

$$$$
>  <structure>
Cc1cccc(N2CCN(C(=O)CN(/N=C/c3cccc(Cl)c3)C(=O)c3ccncc3)CC2)c1

>  <MIC>
> 16 µg/mL

$$$$
>  <structure>
O=C(CN(/N=C/c1ccc(Cl)cc1Cl)C(=O)c1ccncc1)N1CCN(c2ccccc2)CC1

>  <MIC>
> 16 µg/mL

$$$$
>  <structure>
O=C(CN(/N=C/c1ccccc1Cl)C(=O)c1ccncc1)N1CCN(c2ccccc2)CC1

>  <MIC>
> 16 µg/mL

$$$$
>  <structure>
O=C(CN(/N=C/c1cccc(Cl)c1)C(=O)c1ccncc1)N1CCN(c2ccc(F)cc2)CC1

>  <MIC>
> 16 µg/mL

$$$$
>  <structure>
COc1ccccc1N1CCN(C(=O)CN(/N=C/c2ccccc2Cl)C(=O)c2ccncc2)CC1

>  <MIC>
> 16 µg/mL

$$$$
>  <structure>
O=C(CN(/N=C/c1cccc(Cl)c1)C(=O)c1ccncc1)N1CCN(c2ccc([N+](=O)[O-])cc2)CC1

>  <MIC>
> 16 µg/mL

$$$$
>  <structure>
O=C(CN(/N=C/c1ccccc1Cl)C(=O)c1ccncc1)N1CCN(Cc2ccc3c(c2)OCO3)CC1

>  <MIC>
4 µg/mL

$$$$
>  <structure>
O=C(CN(/N=C/c1cccc(Cl)c1)C(=O)c1ccncc1)N1CCN(c2ccc(Cl)cc2)CC1

>  <MIC>
> 16 µg/mL

$$$$
>  <structure>
COc1ccccc1N1CCN(C(=O)CN(/N=C/c2ccc(Cl)cc2Cl)C(=O)c2ccncc2)CC1

>  <MIC>
> 16 µg/mL

$$$$
>  <structure>
O=C(CN(/N=C/c1ccc(Cl)cc1Cl)C(=O)c1ccncc1)N1CCN(c2ccc(Cl)cc2)CC1

>  <MIC>
8 µg/mL

$$$$
>  <structure>
O=C(CN(/N=C/c1ccc(Cl)cc1)C(=O)c1ccncc1)N1CCN(c2ccc(F)cc2)CC1

>  <MIC>
> 16 µg/mL

$$$$
>  <structure>
O=C(CN(/N=C/c1ccc(Cl)cc1)C(=O)c1ccncc1)N1CCN(c2ccc(Cl)cc2)CC1

>  <MIC>
> 16 µg/mL

$$$$
>  <structure>
O=C(CN(/N=C/c1ccc(Cl)cc1Cl)C(=O)c1ccncc1)N1CCN(c2ccc([N+](=O)[O-])cc2)CC1

>  <MIC>
> 16 µg/mL

$$$$
>  <structure>
COc1ccccc1N1CCN(C(=O)CN(/N=C/c2cccc(Cl)c2)C(=O)c2ccncc2)CC1

>  <MIC>
> 16 µg/mL

$$$$
